Task for the reader: assign each of the following molecules its reported pKi.
- EXPERIMENTAL_SYSTEM: human CCR1 (Homo sapiens)
- Sequence (P32246 1-355): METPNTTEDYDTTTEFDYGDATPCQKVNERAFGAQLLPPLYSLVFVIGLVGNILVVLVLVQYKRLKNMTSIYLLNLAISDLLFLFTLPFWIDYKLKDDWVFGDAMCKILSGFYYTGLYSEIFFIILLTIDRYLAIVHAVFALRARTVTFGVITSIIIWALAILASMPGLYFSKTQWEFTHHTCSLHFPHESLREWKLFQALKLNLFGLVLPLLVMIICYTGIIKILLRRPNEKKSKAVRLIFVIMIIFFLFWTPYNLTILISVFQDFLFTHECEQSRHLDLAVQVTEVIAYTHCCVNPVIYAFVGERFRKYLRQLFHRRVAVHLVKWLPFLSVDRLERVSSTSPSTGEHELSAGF
Numbers only, as −log10 of the molar value.

* C[C@@H]1CN(C(=O)COc2ccc(Cl)cc2C(N)=O)[C@@H](C)CN1Cc1ccc(F)cc1 [compound 47] | 8.52

Hello, I would appreciate it if you could give pKi for each entry below.
1. CC1CN(C(=O)COc2ccc(Cl)cc2N)C(C)CN1Cc1ccc(F)cc1 (centres unmarked) [compound 15]
2. CC(c1cc(Cl)ccc1OCC(=O)N1C[C@@H](C)N(Cc2ccc(F)cc2)C[C@@H]1C)n1ccnc1 (some centres unmarked) [compound 29]
3. O=C(COc1ccc(Cl)cc1)N1CCN(Cc2ccc(F)cc2)C(C(F)(F)F)C1 (centres unmarked) [compound 37]
4. C[C@@H]1CN(C(=O)COc2ccc(Cl)cc2NC(=O)CNC(N)=O)[C@@H](C)CN1Cc1ccc(F)cc1 [compound 27]
5. CC(C)C(=O)Nc1cc(Cl)ccc1OCC(=O)N1C[C@@H](C)N(Cc2ccc(F)cc2)C[C@@H]1C [compound 21]
6. CC(=O)Nc1ccccc1OCC(=O)N1CCN(Cc2ccc(F)cc2)CC1C (centres unmarked) [compound 31]

Return:
1. 8.05
2. 8.22
3. 6.83
4. 8.70
5. 7.89
6. 6.97

Enquiry: Supply measured pKi of CCC[C@@H]1CN(Cc2ccc(F)cc2)CCN1C(=O)COc1ccc(Cl)cc1 [compound 45] in your reply.
Return: 7.12

###

- EXPERIMENTAL_SYSTEM: human CCR1 (Homo sapiens)
Task for the reader: assign each of the following compounds its reported Ki.
One number for each entry, in nM.

Solved cases (3 shown):
- C[C@@H]1CN(C(=O)COc2cccc(C#N)c2)[C@@H](C)CN1Cc1ccc(F)cc1 [compound 32]: 68
- CC(O)C1CN(Cc2ccc(F)cc2)CCN1C(=O)COc1ccc(Cl)cc1 (stereo not shown) [compound 35]: 13
- CC1CN(Cc2ccc(F)cc2)CCN1C(=O)COc1ccc(Cl)c([N+](=O)[O-])c1 (stereo not shown) [compound 16]: 21

Next compound, Ki to be filled in.
Enquiry: Supply measured Ki of CCCC(=O)Nc1cc(Cl)ccc1OCC(=O)N1C[C@@H](C)N(Cc2ccc(F)cc2)C[C@@H]1C [compound 20] in your reply.
Return: 7
